Values were extracted from the FLAb antibody collection (doi:10.1101/2023.12.08.570889).

Biological target: TSLP, Q969D9
Assay: Kd (SPR)
readout: Kd
Remember to follow the number with its unit.

Incoming: Recall and state the measured Kd for unnamed (protein) chain 1: QMQLVESGGGVVQPGRSLRLSCAASGFTFRTYGMHWVRQAPGKGLEWVAVIWYDGSNKHYADSVKGRFTITRDNSKNTLNLQMNSLRAEDTAVYYCARAPRYDDYVEAFDVWGQGTMVTVSS chain 2: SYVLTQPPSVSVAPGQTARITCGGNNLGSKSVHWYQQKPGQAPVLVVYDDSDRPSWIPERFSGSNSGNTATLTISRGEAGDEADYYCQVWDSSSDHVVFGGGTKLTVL .
Outgoing: 44.6 nM

Incoming: Recall and state the measured Kd for unnamed (protein) chain 1: QMQLVESGGGVVQPGRSLRLSCAASGFTFRTYGMHWVRQAPGKGLEWVAVIWYDGSNKHYADSVKGRFTITRDNSKNTLNLQMNSLRAEDTAVYYCARAPRYDEHWEAFDVWGQGTMVTVSS chain 2: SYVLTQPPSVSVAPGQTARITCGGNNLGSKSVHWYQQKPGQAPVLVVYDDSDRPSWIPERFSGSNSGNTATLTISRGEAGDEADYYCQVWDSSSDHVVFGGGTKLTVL .
Outgoing: 170 nM

Incoming: Recall and state the measured Kd for unnamed (protein) chain 1: QMQLVESGGGVVQPGRSLRLSCAASGFTFRTYGMHWVRQAPGKGLEWVAVIWYDGSNKHYADSVKGRFTITRDNSKNTLNLQMNSLRAEDTAVYYCARAPRYDYEYEAFDVWGQGTMVTVSS chain 2: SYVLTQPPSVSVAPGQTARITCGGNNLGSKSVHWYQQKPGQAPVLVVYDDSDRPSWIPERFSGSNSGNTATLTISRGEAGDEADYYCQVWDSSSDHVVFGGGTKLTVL .
Outgoing: 104 nM

Incoming: Recall and state the measured Kd for unnamed (protein) chain 1: QMQLVESGGGVVQPGRSLRLSCAASGFTFSTFAMHWVRQAPGKGLEWVAVIWYDGSNKHYADSVKGRFTITRDNSKNTLNLQMNSLRAEDTAVYYCARAPRYDDYLEAFDVWGQGTMVTVSS chain 2: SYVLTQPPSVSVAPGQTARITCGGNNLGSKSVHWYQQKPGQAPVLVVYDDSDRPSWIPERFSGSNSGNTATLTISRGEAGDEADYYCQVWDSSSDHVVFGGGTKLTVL .
Outgoing: 159 nM

Incoming: Recall and state the measured Kd for unnamed (protein) chain 1: QMQLVESGGGVVQPGRSLRLSCAASGFTFRTYGMHWVRQAPGKGLEWVAVIWYDGSNKHYADSVKGRFTITRDNSKNTLNLQMNSLRAEDTAVYYCAREPPLFYSSWSLDNWGQGTMVTVSS chain 2: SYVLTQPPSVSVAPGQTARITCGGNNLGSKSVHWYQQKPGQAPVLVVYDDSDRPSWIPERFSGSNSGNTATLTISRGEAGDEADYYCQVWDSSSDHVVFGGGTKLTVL .
Outgoing: 0.203 nM

Incoming: Recall and state the measured Kd for unnamed (protein) chain 1: QMQLVESGGGVVQPGRSLRLSCAASGFTFRTYGMHWVRQAPGKGLEWVAVIWYDGSNKHYADSVKGRFTITRDNSKNTLNLQMNSLRAEDTAVYYCARSPRYYWYYEAFDVWGQGTMVTVSS chain 2: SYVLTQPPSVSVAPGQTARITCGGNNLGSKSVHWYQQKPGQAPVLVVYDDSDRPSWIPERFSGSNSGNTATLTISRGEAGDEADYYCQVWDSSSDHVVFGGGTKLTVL .
Outgoing: 81.9 nM

Incoming: Recall and state the measured Kd for unnamed (protein) chain 1: QMQLVESGGGVVQPGRSLRLSCAASGFTFRTYGMHWVRQAPGKGLEWVAVIWYDGSNKHYADSVKGRFTITRDNSKNTLNLQMNSLRAEDTAVYYCARAPRYDEHYEAFDVWGQGTMVTVSS chain 2: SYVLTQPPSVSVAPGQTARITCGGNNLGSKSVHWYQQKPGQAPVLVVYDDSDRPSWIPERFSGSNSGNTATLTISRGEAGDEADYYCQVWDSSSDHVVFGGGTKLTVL .
Outgoing: 168 nM

Incoming: Recall and state the measured Kd for unnamed (protein) chain 1: QMQLVESGGGVVQPGRSLRLSCAASGFTFRTYGMHWVRQAPGKGLEWVAVIWYDGSNKHYADSVKGRFTITRDNSKNTLNLQMNSLRAEDTAVYYCARAPRYDDAYEAFDVWGQGTMVTVSS chain 2: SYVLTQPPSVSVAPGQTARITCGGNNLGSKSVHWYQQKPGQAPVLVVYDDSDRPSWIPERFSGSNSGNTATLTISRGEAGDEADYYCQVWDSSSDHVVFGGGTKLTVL .
Outgoing: 99.6 nM

Incoming: Recall and state the measured Kd for unnamed (protein) chain 1: QMQLVESGGGVVQPGRSLRLSCAASGFTFRTYGMHWVRQAPGKGLEWVAVIWYDGSNKHYADSVKGRFTITRDNSKNTLNLQMNSLRAEDTAVYYCARAPRYDEEYEAFDVWGQGTMVTVSS chain 2: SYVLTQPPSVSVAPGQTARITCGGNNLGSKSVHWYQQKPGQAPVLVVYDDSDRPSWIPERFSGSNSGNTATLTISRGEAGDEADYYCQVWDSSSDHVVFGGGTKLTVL .
Outgoing: 78.9 nM

Incoming: Recall and state the measured Kd for unnamed (protein) chain 1: QMQLVESGGGVVQPGRSLRLSCAASGFTFSTFAMHWVRQAPGKGLEWVAVIWYDGSNKHYADSVKGRFTITRDNSKNTLNLQMNSLRAEDTAVYYCARAPRYDEEYEAFDVWGQGTMVTVSS chain 2: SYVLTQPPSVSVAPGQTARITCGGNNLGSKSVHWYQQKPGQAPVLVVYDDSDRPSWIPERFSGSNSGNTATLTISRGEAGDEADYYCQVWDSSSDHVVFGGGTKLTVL .
Outgoing: 240 nM
